# apparent KD of K4 kissing-loop reporter per entry
system: K4 kissing-loop RNA reporter; test: apparent KD of K4 kissing-loop reporter; higher = weaker reporter binding; settings: Eterna round: R107; input ligand: FMN 200 uM;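 note: bound reporter read as fluorescence of individual clusters on recovered sequencing chips by microscopy, with normalized cluster intensities fitted with a binding model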

Here is how some sequences turned out for apparent KD of K4 kissing-loop reporter.
| Sequence Chain | apparent KD of K4 kissing-loop reporter |
| --- | --- |
| UUACAGGAACAAGGAUAUGGCGUUGUAGUGAUGUUACAGCGAAGAGCUCCACGCGAUCGGACAAAACCAGAAGGUGUAUGGAAUC [theeternabot_exclusion_KL_FMN_B_42] | 155 nM |
| GGGAGGAAAAUUUUCCUCAAAAGUUGGCUACAGGAUAUCGUGGGAAUGAGAAGGGUAACCGAGACGCCCAGUGAUGUUGGGUGCC [Antegete] | 415 nM |
| UGAUACCAGACGGCCGCCACUCCCGUAAGUCAAAGACUUACCAAGAGUAUCGUCCAGUGAUGUUGGAGGACCGGGUCUGGUAUCU [FiskerMod 9 - Jieux - Exclusion - Tryptophan B] | 376 nM |
| AGGCACGAGCAAGGAUAUUGAGUAGAGUGAUGUUCUGCCUGGGUUGGCUCGUAAGAGCCUUCUCAGCGAGAAGGUGCUCGUGCCU [#2 Same State - FMN A Attempt #23 (HarryS)] | 254 nM |
| CAUACGCAUGGAGGAUAUGAGAUUACUCAUAUCAUUUAAUAUUCUCAGUGAUGUUGAGAUUUAGACUCAGAAGGCCAUGUGUAUG [Ex FMN B 13] | 302 nM |
| UACAUAUUAUUAUUUCUACAUUUAUUUAGUCAGGAUAUCGAUUAAACGAGAAGGGACAAUAUCAAGUGAUGUUUGAUAAUUCAAA [JR_SSFMNA_Sub022] | 85.3 nM |
| GCCGUACGCAUGGAUACCAGCAGAACUGCCCUCCCAGUGAUGUUGGGAGGAUCUUUCCUAUGCCCUUGGCAGCCAUGCGUACGGC | 148 nM |
| CGAAGAUUCCAUGAUACCAGCCUCGGCCCAUAGAGUGAUGUUCUAGUCGGGUCCGUUCGCGGCCCUUGGCAGCAUUUCACCACGA [theeternabot_sameState_KL_Theo_B_44] | 197 nM |
| AAUUCAGUGAUGUUGGAAGGCAGGAGGGAUACCAGCGGAAAUAAACGCCCUUGGCAGCCCAAAUAUCCCAAAUAGAUAAUAAUUU [Same State - Theophylline A (Freestyle 1)] | 581 nM |
| AAAUAUUCGAGUGAUGUUCGAAUAAUAUCAGAGGAUAUGCAUAAAAGCAGAAGGCUGUAUUACUUUUUGUUACGAAAUUUUAUAA [JR_SSFMNA_Sub020] | 111 nM |

Next:
apparent KD of K4 kissing-loop reporter value, target or system K4 kissing-loop RNA reporter, for AAUACGCCGAAAGGAUAUAUAGAACAUCAAGGGCGCUGACUUUGCUAAAUCACAAGUGAUGUUUGUAUAGAAGGUUCGCAGUCAA [theeternabot_exclusion_KL_FMN_B_30] : 245 nM

---

Catalogue of apparent KD of MS2 coat protein values
tested on: MS2 coat protein; assay: apparent KD of MS2 coat protein; designed switch direction (-1 OFF switch, 1 ON switch): -1; higher = weaker reporter binding; conditions: input ligand: FMN 200 uM
Quick note: give the figure in nM, leave out the unit.

See these solved cases before continuing.
| Sequence Chain | Quantity | Recorded Number |
| --- | --- | --- |
| AAUAAGAAGUAAGGAUAUCUGAAAGGAAGUGUAAGAGAAGGUACGGUGACGUCAGAACGACAUGAGGAUCACCCAUGUAAAGAA [PowerStrip EXNG 1.11] (Eterna round: R96, puzzle: Exclusion NG 1) | apparent KD of MS2 coat protein | 79 |
| GAAAACGCUGAGGAUAUUUCUGAUCAAAGCAGCAAAGAAGGCAGCACAUGAGGAUCACCCAUGUGGUCUUCAAG [Mat - Exclusion 6 - JL Mod - D12] (Eterna round: R97, puzzle: Exclusion 6) | apparent KD of MS2 coat protein | 243 |

Kindly note the recorded apparent KD of MS2 coat protein for CUGAACCCGGUAGGAUAUAUUGUGGGCAAGCAUGGAACAACAUGAGGAUCACCCAUGUAAUUUAGGUAGAAGGGCCAAAAGAUU [Excl-NG2-LRO08] (Eterna round: R96, puzzle: Exclusion NG 2) , which is 56.8

Data point: CGAUGUGGAGUGAGGAUAUCGUGUUCGAAAGAACGUGAGAAGGCACAUGAGGAUCACCCAUGUGAUCCAUGUCG [Omei Ex4B A8] (Eterna round: R97, puzzle: Brourd's mod of Exclusion 4) ; apparent KD of MS2 coat protein = 31.7

Entry AAGUAUCAUGUAGGAUAUGCUAACCGAACGUUAGCAGAAGGACAUGAGGAUCACCCAUGUUCUCAUCUGUAAGAACAGAUGUCU [Ex NG1 #6] (Eterna round: R96, puzzle: Exclusion NG 1) — recorded apparent KD of MS2 coat protein = 27.9
